- assay-overview: Selectivity index, ratio of EC50 for cytotoxicity against rat L6 cells to EC50 for antitrypanosomal activity against bloodstream form of Trypanosoma brucei brucei 221a variant
- Type: toxicity, cell-based
- run-parameters: read-out: Ratio EC50
Mark 1.0 only when selectivity ratio stays strictly below 60. Values equal to the cut-off are 0.0.

molecule=N=C(N)c1ccc2nc(CCCc3nc4ccc(C(=N)N)cc4s3)sc2c1 cat=0.0
molecule=c1cc2nc(CCCCCCCc3nc4ccc(C5=NCCN5)cc4s3)sc2cc1C1=NCCN1 cat=1.0
molecule=N=C(N)c1ccc2nc(CCCCCCCc3nc4ccc(C(=N)N)cc4s3)sc2c1 cat=1.0
molecule=C(=C\c1nc2ccc(C3=NCCN3)cc2s1)/c1nc2ccc(C3=NCCN3)cc2s1 cat=1.0
molecule=c1cc2nc(CCCCc3nc4ccc(C5=NCCN5)cc4s3)sc2cc1C1=NCCN1 cat=0.0
molecule="CS(=O)(=O)O.CS(=O)(=O)O.N=C(N)c1ccc2nc(C3CCC(c4nc5ccc(C(=N)N)cc5s4)CC3)sc2c1 (stereo unspecified)" cat=0.0
molecule=c1cc2nc(CCc3nc4ccc(C5=NCCN5)cc4s3)sc2cc1C1=NCCN1 cat=1.0
molecule=c1cc2nc(CCCCCCc3nc4ccc(C5=NCCCN5)cc4s3)sc2cc1C1=NCCCN1 cat=0.0
molecule=C(=C\c1nc2ccc(C3=NCCCN3)cc2s1)/c1nc2ccc(C3=NCCCN3)cc2s1 cat=0.0
molecule=N=C(N)c1ccc2nc(CCCCc3nc4ccc(C(=N)N)cc4s3)sc2c1 cat=0.0
molecule=N=C(N)c1ccc2nc(CCc3nc4ccc(C(=N)N)cc4s3)sc2c1 cat=0.0
molecule=N=C(N)c1ccc2nc(CCCCCCc3nc4ccc(C(=N)N)cc4s3)sc2c1 cat=1.0
molecule=c1cc2nc(CCCCc3nc4ccc(C5=NCCCN5)cc4s3)sc2cc1C1=NCCCN1 cat=0.0
molecule="c1cc2nc(C3CCC(c4nc5ccc(C6=NCCN6)cc5s4)CC3)sc2cc1C1=NCCN1 (stereo unspecified)" cat=1.0
molecule="c1cc2nc(C3CCC(c4nc5ccc(C6=NCCCN6)cc5s4)CC3)sc2cc1C1=NCCCN1 (stereo unspecified)" cat=0.0
molecule=N=C(N)c1ccc2nc(/C=C/c3nc4ccc(C(=N)N)cc4s3)sc2c1 cat=0.0
molecule=c1cc2nc(CCCCCCc3nc4ccc(C5=NCCN5)cc4s3)sc2cc1C1=NCCN1 cat=1.0
molecule=N=C(N)c1ccc2nc(CCCCCc3nc4ccc(C(=N)N)cc4s3)sc2c1 cat=0.0

====

- assay-overview: Cytotoxicity against rat L6 cells assessed as cell growth inhibition incubated for 6 days by resazurin dye based assay
- Assay type: toxicity
log10(EC50 at 6 days) values by entry
readout-type: log10(EC50 at 6 days) (log10 of the value in µM)

compound=c1cc2nc(CCc3nc4ccc(C5=NCCN5)cc4s3)sc2cc1C1=NCCN1 readout_type="log10(EC50 at 6 days)" recorded_measurement=1.91
compound=c1cc2nc(CCCCc3nc4ccc(C5=NCCN5)cc4s3)sc2cc1C1=NCCN1 readout_type="log10(EC50 at 6 days)" recorded_measurement=1.97
compound=N=C(N)c1ccc2nc(CCCCCc3nc4ccc(C(=N)N)cc4s3)sc2c1 readout_type="log10(EC50 at 6 days)" recorded_measurement=2.06
compound="c1cc2nc(C3CCC(c4nc5ccc(C6=NCCN6)cc5s4)CC3)sc2cc1C1=NCCN1 (stereo unspecified)" readout_type="log10(EC50 at 6 days)" recorded_measurement=0.62
compound=c1cc2nc(CCCCCCCc3nc4ccc(C5=NCCN5)cc4s3)sc2cc1C1=NCCN1 readout_type="log10(EC50 at 6 days)" recorded_measurement=0.84
compound=N=C(N)c1ccc2nc(/C=C/c3nc4ccc(C(=N)N)cc4s3)sc2c1 readout_type="log10(EC50 at 6 days)" recorded_measurement=0.39
compound=N=C(N)c1ccc2nc(CCCCc3nc4ccc(C(=N)N)cc4s3)sc2c1 readout_type="log10(EC50 at 6 days)" recorded_measurement=2.13
compound=C(=C\c1nc2ccc(C3=NCCN3)cc2s1)/c1nc2ccc(C3=NCCN3)cc2s1 readout_type="log10(EC50 at 6 days)" recorded_measurement=0.61
compound=C(=C\c1nc2ccc(C3=NCCCN3)cc2s1)/c1nc2ccc(C3=NCCCN3)cc2s1 readout_type="log10(EC50 at 6 days)" recorded_measurement=1.71
compound="CS(=O)(=O)O.CS(=O)(=O)O.N=C(N)c1ccc2nc(C3CCC(c4nc5ccc(C(=N)N)cc5s4)CC3)sc2c1 (stereo unspecified)" readout_type="log10(EC50 at 6 days)" recorded_measurement=1.13

====

EC50 at 6 days values by entry
- assay-overview: Cytotoxicity against rat L6 cells assessed as cell growth inhibition incubated for 6 days by resazurin dye based assay
- Format: toxicity
readout-type: EC50 at 6 days (µM)

molecule=N=C(N)c1ccc2nc(CCCCCCc3nc4ccc(C(=N)N)cc4s3)sc2c1 readout_type="EC50 at 6 days" qualifier_sign== recorded_measurement=42.5
molecule=N=C(N)c1ccc2nc(CCCCCCCc3nc4ccc(C(=N)N)cc4s3)sc2c1 readout_type="EC50 at 6 days" qualifier_sign== recorded_measurement=13.9
molecule=c1cc2nc(CCCCCc3nc4ccc(C5=NCCN5)cc4s3)sc2cc1C1=NCCN1 readout_type="EC50 at 6 days" qualifier_sign== recorded_measurement=93.5
molecule=c1cc2nc(CCCCCCc3nc4ccc(C5=NCCN5)cc4s3)sc2cc1C1=NCCN1 readout_type="EC50 at 6 days" qualifier_sign== recorded_measurement=10.9
molecule="c1cc2nc(C3CCC(c4nc5ccc(C6=NCCCN6)cc5s4)CC3)sc2cc1C1=NCCCN1 (stereo not given)" readout_type="EC50 at 6 days" qualifier_sign=> recorded_measurement=130

====

- assay-overview: Apparent permeability across apical to basolateral side in MDCK-MDR1 cells at 10 uM measured for 60 mins by LC-MS/MS analysis
- Format: ADME, cell-based, Canis lupus familiaris
- run-parameters: dog
readout-type: Papp A→B at 1 h, 10 µM

compound=O=C(O)Cc1ccccc1Nc1c(Cl)cccc1Cl readout_type="Papp A→B at 1 h, 10 µM" recorded_measurement="47.3 ×10⁻⁶ cm/s"
compound="CS(=O)(=O)O.CS(=O)(=O)O.N=C(N)c1ccc2nc(C3CCC(c4nc5ccc(C(=N)N)cc5s4)CC3)sc2c1 (stereo not drawn)" readout_type="Papp A→B at 1 h, 10 µM" recorded_measurement="< 0.1 ×10⁻⁶ cm/s"
compound=CC(C)CN(C[C@@H](O)[C@H](Cc1ccccc1)NC(=O)O[C@H]1CCOC1)S(=O)(=O)c1ccc(N)cc1 readout_type="Papp A→B at 1 h, 10 µM" recorded_measurement="0.5 ×10⁻⁶ cm/s"

====

- Test system: Trypanosoma brucei
- assay-overview: Antitrypanosomal activity against blood stream form of Trypanosoma brucei 221a variant assessed as parasite growth inhibition measured after 48 hrs by resazurin dye based fluorescence analysis
- Format: functional, organism-based
- run-parameters: time 48 hrs
EC90 values by entry
readout-type: EC90

compound=c1cc2nc(CCCCCCc3nc4ccc(C5=NCCN5)cc4s3)sc2cc1C1=NCCN1 readout_type=EC90 recorded_measurement="1880 nM"
compound=N=C(N)c1ccc2nc(CCCCCCCc3nc4ccc(C(=N)N)cc4s3)sc2c1 readout_type=EC90 recorded_measurement="1390 nM"
compound=N=C(N)c1ccc2nc(/C=C/c3nc4ccc(C(=N)N)cc4s3)sc2c1 readout_type=EC90 recorded_measurement="22 nM"
compound=c1cc2nc(CCCc3nc4ccc(C5=NCCN5)cc4s3)sc2cc1C1=NCCN1 readout_type=EC90 recorded_measurement="9010 nM"
compound=c1cc2nc(CCc3nc4ccc(C5=NCCN5)cc4s3)sc2cc1C1=NCCN1 readout_type=EC90 recorded_measurement="7820 nM"
compound=c1cc2nc(CCCCCc3nc4ccc(C5=NCCN5)cc4s3)sc2cc1C1=NCCN1 readout_type=EC90 recorded_measurement="2110 nM"
compound=N=C(N)c1ccc2nc(CCCCCCc3nc4ccc(C(=N)N)cc4s3)sc2c1 readout_type=EC90 recorded_measurement="1520 nM"
compound=N=C(N)c1ccc2nc(CCc3nc4ccc(C(=N)N)cc4s3)sc2c1 readout_type=EC90 recorded_measurement="400 nM"
compound=c1cc2nc(CCCCc3nc4ccc(C5=NCCCN5)cc4s3)sc2cc1C1=NCCCN1 readout_type=EC90 recorded_measurement="310 nM"
compound=c1cc2nc(CCCCCCCc3nc4ccc(C5=NCCN5)cc4s3)sc2cc1C1=NCCN1 readout_type=EC90 recorded_measurement="2520 nM"
compound=N=C(N)c1ccc2nc(CCCCc3nc4ccc(C(=N)N)cc4s3)sc2c1 readout_type=EC90 recorded_measurement="131 nM"
compound=N=C(N)c1ccc2nc(CCCCCc3nc4ccc(C(=N)N)cc4s3)sc2c1 readout_type=EC90 recorded_measurement="145 nM"
compound=c1cc2nc(CCc3nc4ccc(C5=NCCCN5)cc4s3)sc2cc1C1=NCCCN1 readout_type=EC90 recorded_measurement="3480 nM"
compound="c1cc2nc(C3CCC(c4nc5ccc(C6=NCCCN6)cc5s4)CC3)sc2cc1C1=NCCCN1 (configuration not stated)" readout_type=EC90 recorded_measurement="31 nM"
compound=N=C(N)c1ccc2nc(CCCc3nc4ccc(C(=N)N)cc4s3)sc2c1 readout_type=EC90 recorded_measurement="750 nM"
compound=c1cc2nc(CCCCCCc3nc4ccc(C5=NCCCN5)cc4s3)sc2cc1C1=NCCCN1 readout_type=EC90 recorded_measurement="56 nM"
compound="CS(=O)(=O)O.CS(=O)(=O)O.N=C(N)c1ccc2nc(C3CCC(c4nc5ccc(C(=N)N)cc5s4)CC3)sc2c1 (configuration not stated)" readout_type=EC90 recorded_measurement="1 nM"
compound=C(=C\c1nc2ccc(C3=NCCN3)cc2s1)/c1nc2ccc(C3=NCCN3)cc2s1 readout_type=EC90 recorded_measurement="680 nM"
compound=C(=C\c1nc2ccc(C3=NCCCN3)cc2s1)/c1nc2ccc(C3=NCCCN3)cc2s1 readout_type=EC90 recorded_measurement="160 nM"
compound="c1cc2nc(C3CCC(c4nc5ccc(C6=NCCN6)cc5s4)CC3)sc2cc1C1=NCCN1 (configuration not stated)" readout_type=EC90 recorded_measurement="490 nM"
compound=CSc1ccc(OCc2ncc([N+](=O)[O-])n2C)cc1 readout_type=EC90 recorded_measurement="4510 nM"
compound=c1cc2nc(CCCCc3nc4ccc(C5=NCCN5)cc4s3)sc2cc1C1=NCCN1 readout_type=EC90 recorded_measurement="1870 nM"
